- PROCEDURE_TEXT: Fluorescence property of compound in aqueous solution assessed as quantum yield
- Type: physicochemical
- CONDITION_SET: buffer
MEASURED_METRIC: Activity
Please reply with the value in numeric form only.

Query string: Entry under review: COc1ccc2nc3cc(Cl)ccc3c(NCCCCCCCCn3cnc4c(OCc5ccccc5)nc(N)nc43)c2c1 . Reported Activity?
Result string: 0.05

Query string: Entry under review: COc1ccc2nc3cc(Cl)ccc3c(NCCOCCOCC(=O)NCc3cccc(COc4nc(N)nc5[nH]cnc45)c3)c2c1 . Reported Activity?
Result string: 0.01

Query string: Entry under review: COc1ccc2nc3cc(Cl)ccc3c(N)c2c1 . Reported Activity?
Result string: 0.36

Query string: Entry under review: COc1ccc2nc3cc(Cl)ccc3c(NCCCCCCCC(=O)NCc3cccc(COc4nc(N)nc5[nH]cnc45)c3)c2c1 . Reported Activity?
Result string: 0.01

Query string: Entry under review: COc1ccc2nc3cc(Cl)ccc3c(NCCCCn3cnc4c(OCc5ccccc5)nc(N)nc43)c2c1 . Reported Activity?
Result string: 0.01

Query string: Entry under review: COc1ccc2nc3cc(Cl)ccc3c(NCCC(=O)NCc3cccc(COc4nc(N)nc5[nH]cnc45)c3)c2c1 . Reported Activity?
Result string: 0.08

Origin of the recorded values: ChEMBL document CHEMBL5143526
